Exercise: state measured log10(TGI) for each of the compounds provided.
# Tested on: MDA-MB-231 breast
# PROTOCOL SUMMARY: NCI tumour cell line growth inhibition, 48 h
Answers are given as log10 of TGI in µM.

CN(C)CCc1c2c(nc3ccccc13)C(=O)c1cccnc1C2=O :: 1.42
COc1ccc(Nc2ccc([N+](=O)[O-])cc2[N+](=O)[O-])cc1CN(CCCl)CCCl :: 0.97
c1ccc(N=C2c3ccsc3C(=Nc3ccccc3)c3ccsc32)cc1 :: 0.65
CC(C)/C(Cl)=N/OC(=O)Nc1ccc(Cl)c(Cl)c1 :: 1.48
CC1C=CC(OC(=O)C(C)(O)CCC(O)(C(=O)OC2CC(O)C(C(C)C)CC2(C)O)C(C)C)(C(C)C)CC1 (stereo not given) :: 0.13

Here is another compound to look at.
Request: Consider the compound Cn1ccnc1Oc1ccc(Cl)cc1 and give its measured log10(TGI).
Response: 1.57

----------
# System: SNB-19 CNS
# PROTOCOL SUMMARY: NCI tumour cell line growth inhibition, 48 h
MEASURE: TGI

# count of solved cases: 2
Cc1[nH]nc(-c2ccon2)c1N=O :: 64.8 µM
COC(=O)C(C(=O)C(=O)Nc1ccc([N+](=O)[O-])cc1)c1nc2ccc([N+](=O)[O-])cc2[nH]c1=O (stereo unspecified) :: > 100 µM

Count: 4. Required value per item: TGI.
1. COc1ccc(/C=C(\C)[N+](=O)[O-])cc1OC
2. COc1ccc(-c2[nH]c3ccccc3c2CCNS(=O)(=O)c2ccc(C)cc2)cc1
3. Cc1ccccc1C(=O)C1CCCCC1O (stereo unspecified)
4. O=c1c2cc(F)ccc2sc2c(NCCCNCCO)nc3ccccc3c12

Response:
1. 23.6 µM
2. > 10 µM
3. > 100 µM
4. 3.14 µM

----------
# Tested on: OVCAR-5 ovarian
# PROTOCOL SUMMARY: NCI tumour cell line growth inhibition, 48 h; in the data active = GI50 below about 0.43 µM; inactive = the rest
Respond with a class label; see YES (active), NO (inactive)

CCOC(=O)c1cc2c(cc1Cl)SC(=Nc1ccccc1)N(S(=O)(=O)c1ccc(Br)s1)S2(=O)=O :: NO
COc1cc(C(=O)c2cc(C)c3[nH]c4ccc(O)cc4c3c2C)cc(OC)c1OC :: YES
Cc1cc(C)c(C2CNCc3cc4c(cc32)CNCC4c2c(C)cc(C)cc2C)c(C)c1 (stereo unspecified) :: NO

Request: Test call for this compound, please: CN1CCN(CCCCCN=c2cc3c(=O)n(CCCCCN4CCN(C)CC4)c(=O)c4c(NCCCCCN5CCN(C)CC5)cc5c(O)n(CCCCCN6CCN(C)CC6)c(=O)c2c5c4-3)CC1
Response: NO

Request: Item: COc1cc(/C=C/c2ccc3c(Br)cc(Br)c(O)c3n2)ccc1O
Response: NO

Request: Item: COC(=O)c1cc(-c2ccc(OC)c(OC)c2)[nH]c1N/N=C/c1c(Cl)cccc1Cl
Response: NO

Request: Item: c1cc(N2CCN(c3ccc(C4=NCCCN4)cc3)CC2)ccc1C1=NCCCN1
Response: NO

Request: Item: Oc1c(-c2cc(C(F)(F)F)[nH]n2)cc(Cl)c(OCc2ccc(Cl)cc2)c1-c1ccc(Cl)c(C(F)(F)F)c1
Response: NO

Request: Item: CCN1C(=O)N(CC)C2C1NN=c1s/c(=C\c3ccc(F)cc3)c(=O)n12 (stereo unspecified)
Response: NO

Request: Item: COc1cccc(Oc2ccccc2NC(=O)CNC(=O)c2cccc3ccccc23)c1
Response: NO

Request: Item: C=CCc1cc(Nc2c3ccc(Cl)cc3nc3ccc(OC)cc23)cc(CN(CC)CC)c1O
Response: NO
